B1: WEE1 (parent)
chain: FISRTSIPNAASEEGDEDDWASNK

- Variants of: B1
- Experiment Description: protein stability index of a GFP-peptide fusion (GPS, HEK-293T) (PSI 1-6); higher = more stable;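 note: lentivirally expressed fusions sorted by FACS into six bins by GFP to DsRed ratio, PSI derived from sequencing read proportions per bin multiplied by bin number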
- Condition Parameters: c terminus: a fixed tail appended
Label Fulfilled for high-side protein stability index (at or above 4) and Not fulfilled for low-side protein stability index (below it).

Please review the following examples before continuing.
FISRTSIPNAASEEGDEDDWMSNK : Not fulfilled
FISRTSIPNAASEEGDEDDWASRK : Fulfilled
FISRTSIPNAASEESDEDDWASNK : Fulfilled

Q: Is reported protein stability index greater than or equal to 4 here: `FISRTSIPNFASEEGDEDDWASNK`
Ans: Not fulfilled

Q: Could you please find out whether `FISRTSIPNAAIEEGDEDDWASNK` has protein stability index that meets 4 or exceeds it?
Ans: Not fulfilled

Q: Has `FISRTSIPIAASEEGDEDDWASNK` a recorded protein stability index greater than or equal to 4?
Ans: Not fulfilled

Q: Identify whether the reported protein stability index of the following variant is 4 or greater: `FISRTSIPNAASEEGDEDFWASNK`
Ans: Not fulfilled
